In this section we review reported Enzyme degradation CDK2 (% remaining) @ 1 μM values for a set of molecules.
# ASSAY_SYSTEM: CDK2 (Homo sapiens, UniProt P24941)
# Construct: endogenous in cells; host or cells: MDA-MB-231
# PROTOCOL_TEXT: CDK protein degradation activity (Western blotting), CDK2
# Assay type: cell-based
# TEST_CONTEXT: MDA-MB-231 cells, 1 μM, 16 hours, Western blot
Kindly provide the numeric value in % only, without the unit symbol.

Some entries whose results are on file:
- MOLECULE: "O=C1CC[C@H](N2C(=O)c3cccc(N4CCC5(CC4)CC(N4CCC(c6ccc(Nc7ncnc8c7ncn8C7CC(NC(=O)Cc8ccccc8)C7)cc6)CC4)C5)c3C2=O)C(=O)N1 (some centres unmarked) [Compound 297]"
  UNITS_LABEL: "%"
  TEST_RESULT: 40
- MOLECULE: "Cc1cccc(C(=O)N[C@H]2C[C@@H](n3cnc4c(NCCC5CCN(CC6CCN(C(=O)CNc7ccc8c(c7)C(=O)N(C7CCC(=O)NC7=O)C8=O)CC6)CC5)ncnc43)C2)n1 (some centres unmarked) [Compound 125]"
  UNITS_LABEL: "%"
  TEST_RESULT: 10
- MOLECULE: "O=C1CC[C@@H](c2cccc(OCC(=O)N3CCC(CN4CCC(c5ccc(Nc6ncnc7c6ncn7C6CC(NC(=O)Cc7ccccc7)C6)cc5)CC4)CC3)c2)C(=O)N1 (some centres unmarked) [Compound 282]"
  UNITS_LABEL: "%"
  TEST_RESULT: 20

# Enzyme degradation CDK2 (% remaining) @ 1 μM (molecule: O=C1CC[C@H](N2C(=O)c3ccc(NCC(=O)N4CCN(CCCN5CCN(c6ccc(Nc7ncnc8c7ncn8C7CC(NC(=O)Cc8ccccc8)C7)cc6)CC5)CC4)cc3C2=O)C(=O)N1 (some centres unmarked) [Compound 233] ) is 80

---

# ASSAY_SYSTEM: CDK2 (Homo sapiens)
# Construct: endogenous in cells; host or cells: MDA-MB-231
# PROTOCOL_TEXT: CDK protein degradation activity (Western blotting), CDK2
# Type: cell-based
# TEST_CONTEXT: MDA-MB-231 cells, 10 μM, 16 hours, Western blot
READOUT_KIND: Enzyme degradation CDK2 (% remaining) @ 10 μM (%)
Kindly provide the numeric value in % only, without the unit symbol.

Some entries whose results are on file:
- COMPOUND: "O=C1CC[C@H](n2nnc3ccc(N4CCC(CN5CCC(CCNc6ncnc7c6ncn7C6CC(NC(=O)c7c(Cl)cccc7Cl)C6)CC5)CC4)cc3c2=O)C(=O)N1 (some centres unmarked)"
  TEST_RESULT: 30
- COMPOUND: "O=C1CC[C@H](N2C(=O)c3ccc(N4CCC(C(=O)N5CCN(CCCC6CCN(c7ccc(Nc8ncnc9c8ncn9[C@H]8C[C@@H](NC(=O)Cc9ccccc9)C8)cc7)CC6)CC5)CC4)cc3C2=O)C(=O)N1"
  TEST_RESULT: 0

Could you now look at the following compound, please?
# Enzyme degradation CDK2 (% remaining) @ 10 μM (compound: O=C1CC[C@H](N2C(=O)c3cccc(NCC(=O)N4CCN(CC5CCN(c6ccc(Nc7ncnc8c7ncn8[C@H]7C[C@@H](NC(=O)c8c(Cl)cccc8Cl)C7)cc6)CC5)CC4)c3C2=O)C(=O)N1 ) is 20

---

# ASSAY_SYSTEM: CDK9 (Homo sapiens, UniProt P50750)
# Construct: endogenous in cells; host or cells: MDA-MB-231
# Sequence (P50750 whole entry): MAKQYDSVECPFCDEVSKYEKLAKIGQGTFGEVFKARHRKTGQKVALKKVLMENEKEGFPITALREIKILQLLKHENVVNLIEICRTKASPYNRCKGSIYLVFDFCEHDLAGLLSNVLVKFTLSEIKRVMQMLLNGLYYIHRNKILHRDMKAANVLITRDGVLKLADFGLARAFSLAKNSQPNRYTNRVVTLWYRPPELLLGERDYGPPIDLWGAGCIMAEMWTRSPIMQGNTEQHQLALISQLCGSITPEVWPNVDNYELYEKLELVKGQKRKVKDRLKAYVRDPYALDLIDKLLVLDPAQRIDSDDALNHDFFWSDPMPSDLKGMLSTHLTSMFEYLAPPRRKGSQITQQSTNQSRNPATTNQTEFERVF
# PROTOCOL_TEXT: CDK protein degradation activity (Western blotting), CDK9
# Type: cell-based
# TEST_CONTEXT: MDA-MB-231 cells, 10 μM, 16 hours, Western blot
READOUT_KIND: Enzyme degradation CDK9 (% remaining) @ 10 μM (%)
Kindly provide the numeric value in % only, without the unit symbol.

Some entries whose results are on file:
- COMPOUND: "O=C1CCC(N2C(=O)c3ccc(N4CCN(CCCN5CCN(c6ccc(Nc7ncnc8c7ncn8[C@H]7C[C@@H](NC(=O)Cc8ccccc8)C7)cc6)CC5)CC4)cc3C2=O)C(=O)N1 (stereo partly shown) [Compound 239]"
  ASSAY_SYSTEM: "CDK9 (Homo sapiens, UniProt P50750)"
  UNITS_LABEL: "%"
  TEST_RESULT: 0
- COMPOUND: "O=C1CCN(c2coc3cc(C(=O)N4CCC(CC(=O)N5CCN(c6ccc(Nc7ncnc8c7ncn8[C@H]7C[C@@H](NC(=O)Cc8ccccc8)C7)cc6)CC5)CC4)ccc23)C(=O)N1 [Compound 195]"
  ASSAY_SYSTEM: "CDK9 (Homo sapiens, UniProt P50750)"
  UNITS_LABEL: "%"
  TEST_RESULT: 10
- COMPOUND: "O=C1CC[C@H](N2C(=O)c3ccc(N4CC(C(=O)N5CCC(CN6CCN(c7ccc(Nc8ncnc9c8ncn9C8CC(NC(=O)Cc9ccccc9)C8)cc7)CC6)CC5)C4)cc3C2=O)C(=O)N1 (stereo partly shown) [Compound 329]"
  ASSAY_SYSTEM: "CDK9 (Homo sapiens, UniProt P50750)"
  UNITS_LABEL: "%"
  TEST_RESULT: 0
- COMPOUND: "O=C1CCC(c2ccc(OCC(=O)N3CC(CN4CCC5(CC4)CC(N4CCN(c6ccc(Nc7ncnc8c7ncn8[C@H]7C[C@@H](NC(=O)Cc8ccccc8)C7)cc6)CC4)C5)C3)cc2)C(=O)N1 (stereo partly shown) [Compound 275]"
  ASSAY_SYSTEM: "CDK9 (Homo sapiens, UniProt P50750)"
  UNITS_LABEL: "%"
  TEST_RESULT: 0
- COMPOUND: "O=C1CC[C@H](N2C(=O)C=C(Nc3cccc(CC(=O)N4CCC(CC(=O)N5CCN(c6ccc(Nc7ncnc8c7ncn8[C@H]7C[C@@H](NC(=O)Cc8ccccc8)C7)cc6)CC5)CC4)c3)C2=O)C(=O)N1 [Compound 196]"
  ASSAY_SYSTEM: "CDK9 (Homo sapiens, UniProt P50750)"
  UNITS_LABEL: "%"
  TEST_RESULT: 40

# Enzyme degradation CDK9 (% remaining) @ 10 μM (compound: O=C1CC[C@H](n2nnc3ccc(N4CCN(CC5CCN(c6ccc(Nc7ncnc8c7ncn8C7CC(NC(=O)Cc8ccccc8)C7)cc6)CC5)CC4)cc3c2=O)C(=O)N1 (stereo partly shown) [Compound 320] ) is 10

# Enzyme degradation CDK9 (% remaining) @ 10 μM (compound: O=C1CC[C@H](n2nnc3ccc(N4CCC5(CC4)CC(N4CCN(c6ccc(Nc7ncnc8c7ncn8[C@H]7C[C@@H](NC(=O)Cc8ccccc8)C7)cc6)CC4)C5)cc3c2=O)C(=O)N1 [Compound 314] ) is 0

---

# ASSAY_SYSTEM: CDK9 (Homo sapiens, UniProt P50750)
# Construct: endogenous in cells; host or cells: MDA-MB-231
# PROTOCOL_TEXT: CDK protein degradation activity (Western blotting), CDK9
# Format: cell-based
# TEST_CONTEXT: MDA-MB-231 cells, 0.1 μM, 16 hours, Western blot
READOUT_KIND: Enzyme degradation CDK9 (% remaining) @ 0.1 μM (%)
Kindly provide the numeric value in % only, without the unit symbol.

Some entries whose results are on file:
- COMPOUND: "O=C1CC[C@H](N2C(=O)c3ccc(OCC(=O)N4CCN(CCCN5CCN(c6ccc(Nc7ncnc8c7ncn8[C@H]7C[C@@H](NC(=O)Cc8ccccc8)C7)cc6)CC5)CC4)cc3C2=O)C(=O)N1"
  TEST_RESULT: 60
- COMPOUND: "Cc1cccc(C(=O)N[C@H]2C[C@@H](n3cnc4c(NC5CCN(CCOC6CCN(C(=O)COc7ccc8c(c7)C(=O)N([C@H]7CCC(=O)NC7=O)C8=O)CC6)CC5)ncnc43)C2)n1"
  TEST_RESULT: 50
- COMPOUND: "Cc1cccc(C(=O)NC2CC(n3cnc4c(NCc5ccc(N6CCN(CC7CCN(c8cccc9c8C(=O)N([C@H]8CCC(=O)NC8=O)C9=O)CC7)CC6)cc5)ncnc43)C2)n1 (some centres unmarked)"
  TEST_RESULT: 20

Could you now look at the following compound, please?
# Enzyme degradation CDK9 (% remaining) @ 0.1 μM (compound: O=C1CC[C@H](N2C(=O)c3ccc(OCC(=O)N4CCN(CC5CCN(c6ccc(Nc7ncnc8c7ncn8C7CC(NC(=O)c8c(Cl)cccc8Cl)C7)cc6)CC5)CC4)cc3C2=O)C(=O)N1 (some centres unmarked) ) is 80

---

In this section we review reported Enzyme degradation CDK2 (% remaining) @ 10 μM values for a set of molecules.
# ASSAY_SYSTEM: CDK2 (Homo sapiens)
# Construct: endogenous in cells; host or cells: MDA-MB-231
# PROTOCOL_TEXT: CDK protein degradation activity (Western blotting), CDK2
# Assay type: cell-based
# TEST_CONTEXT: MDA-MB-231 cells, 10 μM, 16 hours, Western blot
Kindly provide the numeric value in % only, without the unit symbol.

- MOLECULE: "O=C1CCC(N2C(=O)c3cccc(NCC(=O)N4CCC(CN5CCC(c6ccc(Nc7ncnc8c7ncn8[C@H]7C[C@@H](NC(=O)Cc8ccccc8)C7)cc6)CC5)CC4)c3C2=O)C(=O)N1 (stereo partly drawn)"
  UNITS_LABEL: "%"
  TEST_RESULT: 20

Could you now look at the following molecule, please?
# Enzyme degradation CDK2 (% remaining) @ 10 μM (molecule: O=C1CC[C@H](N2C(=O)c3ccc(OCC(=O)N4CCN(CCCN5CCN(c6ccc(Nc7ncnc8c7ncn8[C@H]7C[C@@H](NC(=O)Cc8ccccc8)C7)cc6)CC5)CC4)cc3C2=O)C(=O)N1 ) is 70
